System: MALME-3M melanoma
Experiment: NCI-60 one-dose screen, 48 h
Conditions: 10 µM unless noted
Compounds without any hit were thinned out: in the full panel of roughly 83,000, 20% have a hit. Calls of active or inactive are those of the source. Rule for the calls: active = growth percent below 10; inactive = the rest.
Would you mind answering with one of these outcomes? True = active, False = inactive

// return assay outcome for `COC(=O)/C(CCC=C(C)C)=C1\[C@@H](OC(C)=O)C[C@@]2(C)[C@H]1C[C@@H](O)[C@H]1[C@@]3(C)CC[C@H](NCCO)[C@@H](C)[C@@H]3CC[C@@]12C`
False

// return assay outcome for `CC(=O)Nc1nc2c(s1)CCc1c-2cn(S(=O)(=O)c2ccccc2)c1-c1ccccc1`
True

// return assay outcome for `O=c1c(-c2nc3ccccc3[nH]2)cc2ccccc2n1Cc1cn(Cc2ccc(N3CCOCC3)cc2)nn1`
False

// return assay outcome for `O=C(Nc1ccc(Cl)cc1F)c1cc(I)ccc1O`
True

// return assay outcome for `COc1ccc(C2=C(c3cccc(OC)c3)C(=O)c3ccc(C)nc3C2=O)cc1`
False

====

Test system: U251 CNS
Assay: NCI-60 one-dose screen, 48 h
Details: 10 µM unless noted
About 83,000 compounds went through this panel and 20% of them were active in at least one assay; those are over-represented in the sample as a whole. Active and inactive are the calls of the source. The calls were made as follows: active = growth percent below 10; inactive = the rest.
Would you mind answering with one of these outcomes? Y = active, N = inactive

// return assay outcome for `COc1cccc2c1C=C1CCCCC3=Cc4c(OC)cccc4OC13O2`
N

// return assay outcome for `O=C(CCc1nnc2sc(-c3ccc(Cl)cc3Cl)nn12)c1nc2ncccc2[nH]1`
Y

// return assay outcome for `COc1ccc(/C=C/C(=O)c2c(C)nc3ccccc3c2/C=C/c2ccccc2)cc1O`
N

// return assay outcome for `N#CC(C#N)=Cc1c(-c2ccccc2)[nH]c2ccccc12`
N

====

Test system: LOX IMVI melanoma
Assay: NCI-60 one-dose screen, 48 h (100 = growth as untreated, 0 = no growth, -100 = all killed)
Conditions: 10 µM unless noted
This is part of a sample that, as a whole, favours compounds with a hit. Of some 83,000 tested, about 20% had one in any assay.
reported.property: growth (%)
Numeric only. Scale: %

Quick one: growth for `Cc1ccc(C(=O)c2oc3ccc4c(C)cc(=O)oc4c3c2C)cc1` ?
33.2

Quick one: growth for `C=C1C(=O)O[C@H]2[C@H]1CC/C(COC(=O)/C=C\C(=O)O)=C\CC[C@@]1(C)O[C@@H]21` ?
99.4

Quick one: growth for `CCOc1cccc(/C=N/NC(=O)C(=O)Nc2cccc(C(F)(F)F)c2)c1O` ?
6.47

Quick one: growth for `O=C(c1ccccc1)N(C(=S)NCCc1ccc(Cl)cc1)c1ccccc1` ?
68.2

Quick one: growth for `O=C(Nc1ccc(-c2nc3ccc(NC(=O)c4ccc(Cl)cc4)cc3[nH]2)cc1)c1ccc(Cl)cc1` ?
-49.6

Quick one: growth for `O=C(CCc1nnc2sc(-c3ccc(Cl)cc3Cl)nn12)c1nc2ncccc2[nH]1` ?
-88.3

Quick one: growth for `COc1cccc2c(=O)c3c(sc12)c(NCCCNCCO)nc1ccccc13` ?
37.2

Quick one: growth for O=NN(C(=O)NC1CCC(C(=O)O)CC1)C1CCC(C(=O)O)CC1 (stereo unspecified) ?
99.3

Quick one: growth for `CCOC(=O)c1c(C=O)nc2ccccc2c1/C=C/c1ccc(Cl)cc1` ?
96.9

Quick one: growth for `NS(=O)(=O)c1ccc(CCN=C=S)cc1` ?
-27.9

Quick one: growth for `Nc1nonc1-n1nncc1-c1cccnc1` ?
98.3

====

Test system: MCF7 breast
Experiment: NCI-60 one-dose screen, 48 h (100 = growth as untreated, 0 = no growth, -100 = all killed)
Conditions: 10 µM
This is part of a sample that, as a whole, favours compounds with a hit. Of some 83,000 tested, about 20% had one in any assay. Active and inactive are the calls of the source. The calls were made as follows: active = growth percent below 10; inactive = the rest.
reported.property: growth

Quick one: growth for `COc1ccc(CSc2nnc(SCC(=O)Nc3ccc(Cl)cc3)s2)cc1` ?
63.8% (inactive)

Quick one: growth for `COc1cc(NC(=O)CCSc2nc3ccccc3c(=O)n2Cc2ccccc2)cc(OC)c1OC` ?
84.1% (inactive)

Quick one: growth for `FC(F)(F)c1cccc(Nc2nc(-c3ccccc3)nc3ncccc23)c1` ?
68.2% (inactive)

====

Please provide measured growth for the entries that follow.
Test system: SF-539 CNS
Test: NCI-60 one-dose screen, 48 h (100 = growth as untreated, 0 = no growth, -100 = all killed)
Settings: 10 µM unless noted
This is part of a sample that, as a whole, favours compounds with a hit. Of some 83,000 tested, about 20% had one in any assay.
Numeric only. Scale: %

Quick one: growth for `CN1CCN(Cc2ccc(C(=O)Nc3cncc(C#Cc4cnc(N)c5ccccc45)c3)cc2C(F)(F)F)CC1` ?
-95.9

Quick one: growth for `O=C(/C=C/c1cccc(Cl)c1)OCc1ccc2cc1OCC#C/C=C\C#CCO2` ?
100

Quick one: growth for `O=c1c2cc(F)cc(Cl)c2sc2c(Cl)nc3ccccc3c12` ?
97

Quick one: growth for `Cn1nc(C(C)(C)C)cc1NC(=O)Cc1ccc(/C=C2\C(=O)Nc3ccccc32)cc1` ?
54.9

Quick one: growth for `COc1ccc2oc(=O)cc(Cn3cc(Cn4cnc5c4c(=O)n(C)c(=O)n5C)nn3)c2c1` ?
94

Quick one: growth for `Fc1ccc(Oc2ccc(Nc3ncnc4onc(-c5ccccc5)c34)cc2)cc1` ?
90.1

Quick one: growth for `COc1ccc(OC)c(NC(=O)/C(C#N)=C/c2ccco2)c1` ?
94.7

Quick one: growth for `O=c1oc2ccc(-c3ccc(F)cc3F)cc2c(=O)n1-c1ccc(Cl)c(C(F)(F)F)c1` ?
29.4

Quick one: growth for `COc1ccc2occ(C3=C(c4c[nH]c5ccccc45)C(=O)NC3=O)c2c1` ?
51.8

====

Tested on: EKVX NSCLC
Assay: NCI-60 one-dose screen, 48 h
Conditions: 10 µM unless noted
About 83,000 compounds went through this panel and 20% of them were active in at least one assay; those are over-represented in the sample as a whole. Calls of active or inactive are those of the source. The calls were made as follows: active = growth percent below 10; inactive = the rest.
Would you mind answering with one of these outcomes? active, inactive

// return assay outcome for CCCN1C(=O)N(CCC)C2C1NN=c1s/c(=C3\C(=O)N(C(C)C)c4ccccc43)c(=O)n12 (stereo not given)
inactive

// return assay outcome for `CCCCCCCCCCCCCCn1cc(C2=C(c3coc4ccc(OC)cc34)C(=O)NC2=O)c2ccccc21`
inactive

// return assay outcome for `CCOC(=O)c1sc(-c2ccc(OS(=O)(=O)c3ccccc3[N+](=O)[O-])c(C=O)c2)nc1C`
inactive

// return assay outcome for COc1ccc(C2C3=C(COC3=O)N(CCO)c3cc4c(cc32)CCC4)cc1 (stereo not given)
inactive

// return assay outcome for `COc1cc(/C=C/C(=O)c2c(C)nc3ccccc3c2/C=C/c2ccccc2)cc(OC)c1OC`
inactive

// return assay outcome for COc1ccc(/C=c2\sc3n(c2=O)NC2C(N=3)N(C)C(=O)N2C)cc1 (stereo not given)
inactive

// return assay outcome for `Cn1c(/C=C(\C#N)c2cccc(C(F)(F)F)c2)nc2c(N3CCOCC3)nc(Cl)nc21`
active

// return assay outcome for `O=c1c(-c2nc3ccccc3[nH]2)cc2ccccc2n1Cc1cn(Cc2ccc(F)cc2)nn1`
inactive

// return assay outcome for `CC[C@]1(O)C[C@@H]2CN(CCc3c([nH]c4ccccc34)[C@@](C(=O)OC)(c3cc4c(cc3OC)N(C)[C@H]3[C@@](O)(C(=O)OC)[C@H](OC(C)=O)[C@]5(CC)C=CCN6CC[C@]43[C@@H]65)C2)C1`
inactive

// return assay outcome for `Nc1no[n+]([O-])c1-c1nnc2c(n1)-c1ccccc1C2=O`
inactive

// return assay outcome for `O=C(/C=C/c1ccc(C(F)(F)F)cc1)c1ccc(Nc2nc(NCCO)nc(Nc3ccc(Cl)cc3)n2)cc1`
inactive

// return assay outcome for `O=C(COc1cc(O)c2c(=O)cc(-c3ccccc3)oc2c1)Nc1ccccc1C(F)(F)F`
inactive

// return assay outcome for `CCCc1c(C)c2sc(=O)[nH]c2[nH]c1=O`
inactive

// return assay outcome for `CCCCN1CCN(c2ccc3nc(-c4ccc5nc(-c6ccc(C(F)(F)F)cc6)[nH]c5c4)[nH]c3c2)CC1`
active

// return assay outcome for O=C(Nc1ncc(Cc2cccc(C(F)(F)F)c2)s1)C1COc2ccccc2O1 (stereo not given)
inactive

// return assay outcome for `Nc1cccc(Nc2cc(S(=O)(=O)O)c(N)c3c2C(=O)c2ccccc2C3=O)c1`
inactive

// return assay outcome for COc1cc(/C=C/C(=O)N2c3ccccc3CC2C)c(OC)c2c1OCO2 (stereo not given)
inactive

// return assay outcome for COc1ccc(CCN2C(=O)/C(=C/c3ccc(C4Oc5ccccc5C5CC(c6cccc(OC)c6)=NN54)cc3)SC2=S)cc1 (stereo not given)
inactive

// return assay outcome for `Fc1cccc(COc2ccc(Nc3ncnc4onc(-c5ccccc5)c34)cc2)c1`
inactive

// return assay outcome for `O=C1C(=O)c2c(ccc3ccccc23)-c2ccccc21`
inactive
